tested on: Aspergillus flavus; assay: Antifungal activity against Aspergillus flavus KCCM 11899 after 2 days; type: functional; settings: KCCM 11899, 48 h
Reported MIC values are given for each entry in this list.
Provide only the numeric value, understood in µg/mL.

>>> endpoint_result("O=C(N/N=C/c1cccc([N+](=O)[O-])c1)c1cc(-c2ccc(Cl)cc2)n[nH]1")
12.5
>>> endpoint_result("O=C(N/N=C/c1ccccc1Cl)c1cc(-c2ccc(Cl)cc2)n[nH]1")
25
>>> endpoint_result("COc1ccc(/C=N/NC(=O)c2cc(-c3ccc(Cl)cc3)n[nH]2)cc1OC")
12.5
>>> endpoint_result("O=C(NN1C(=O)CSC1c1ccc(O)cc1)c1cc(-c2ccc(Cl)cc2)n[nH]1 (single isomer, unassigned; (+))")
12.5

As a next step, examine the compound that follows.
Need MIC of COc1ccc(/C=N/NC(=O)c2cc(-c3ccc(Cl)cc3)n[nH]2)cc1 , thanks.
100

# credit: ChEMBL document CHEMBL2057135
